// provenance: paper PMC3334839

target: rat α3 GlyR (Rattus norvegicus); assay: Whole-cell patch-clamp of IGly in HEK-293 cells expressing α3 GlyRs; type: cell-based; details: read-out: EC50 for Gly (concentration-response curve); α3 subunit
Sequence (P24524 34-464): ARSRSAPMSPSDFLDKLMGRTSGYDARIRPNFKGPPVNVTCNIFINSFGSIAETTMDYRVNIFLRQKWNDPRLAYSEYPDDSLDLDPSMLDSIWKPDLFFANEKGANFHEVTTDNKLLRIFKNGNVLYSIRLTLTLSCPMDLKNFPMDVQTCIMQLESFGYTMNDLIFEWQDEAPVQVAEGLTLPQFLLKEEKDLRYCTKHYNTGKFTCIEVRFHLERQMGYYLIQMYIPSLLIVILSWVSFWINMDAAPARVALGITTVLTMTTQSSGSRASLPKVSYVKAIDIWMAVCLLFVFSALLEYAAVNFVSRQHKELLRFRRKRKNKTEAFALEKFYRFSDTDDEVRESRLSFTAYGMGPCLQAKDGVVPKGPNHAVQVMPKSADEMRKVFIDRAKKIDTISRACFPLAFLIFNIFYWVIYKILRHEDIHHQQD
readout-name: pEC50
One number for each entry, as −log10 of the molar value.

# compound "NCC(=O)O" ; its pEC50 = 3.45
